experiment: total protein half-life in vivo (active degradation + dilution); higher = more stable protein; settings: wild type E. coli NCM3722; growth: P-lim chemostat; doubling time 12 h
measure name: total protein half-life in vivo (h)
# output: bare number, implied unit h

Need total protein half-life in vivo of MKEKTIIIVGGGQAAAMAAASLRQQGFTGELHLFSDERHLPYERPPLSKSMLLEDSPQLQQVLPANWWQENNVHLHSGVTIKTLGRDTRELVLTNGESWHWDQLFIATGAAARPLPLLDALGERCFTLRHAGDAARLREVLQPERSVVIIGAGTIGLELAASATQRRCKVTVIELAATVMGRNAPPPVQRYLLQRHQQAGVRILLNNAIEHVVDGEKVELTLQSGETLQADVVIYGIGISANEQLAREANLDTANGIVIDEACRTCDPAIFAGGDVAITRLDNGALHRCESWENANNQAQIAAAAMLGLPLPLLPPPWFWSDQYSDNLQFIGDMRGDDWLCRGNPETQKAIWFNLQNGVLIGAVTLNQGREIRPIRKWIQSGKTFDAKLLIDENIALKSL , thanks.
2.31
